# TEST SYSTEM: T1, soluble form of GPC3 core protein (human, UniProt P51654 25-563)
# T1 construct: not shown: His tag added to the C-terminus
# T1 sequence (P51654 25-563 S495A/S509A, form in doubt): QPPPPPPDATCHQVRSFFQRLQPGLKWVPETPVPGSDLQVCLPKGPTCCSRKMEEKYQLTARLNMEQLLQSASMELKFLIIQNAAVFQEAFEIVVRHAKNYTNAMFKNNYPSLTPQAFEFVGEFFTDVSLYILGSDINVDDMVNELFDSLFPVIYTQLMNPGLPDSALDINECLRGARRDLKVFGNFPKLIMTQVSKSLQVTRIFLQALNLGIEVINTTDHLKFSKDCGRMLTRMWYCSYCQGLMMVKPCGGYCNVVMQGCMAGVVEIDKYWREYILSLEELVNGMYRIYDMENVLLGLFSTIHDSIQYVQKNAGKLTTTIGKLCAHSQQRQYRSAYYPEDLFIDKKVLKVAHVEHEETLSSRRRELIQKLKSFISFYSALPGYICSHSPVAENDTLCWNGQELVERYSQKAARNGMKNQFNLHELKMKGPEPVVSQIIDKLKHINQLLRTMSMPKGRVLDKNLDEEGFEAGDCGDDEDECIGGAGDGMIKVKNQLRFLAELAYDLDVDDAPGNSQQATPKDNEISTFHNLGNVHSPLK
# EXPERIMENT NOTES: competitive ELISA on coated soluble GPC3 core protein; labelled competitor biotin-M1E7;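 further: Biotin-labelled antibody added as 10 µL at 10 µg/mL for 1 h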
Reported Inhibition of the binding of indicated biotin-Mab to sGPC3 core (%) values for the following binders.
Report the value in % with no unit label.

Some binders with recorded Inhibition of the binding of indicated biotin-Mab to sGPC3 core (%):
M5B9 (antibody, V domains shown, Mouse monoclonal from hybridoma) VH: EVQLQQSGTVLARPGASVKMSCKASGYTFTGYWMHWVKQRPGQGLEWIGAIYPGNSDTNYNQKFKGKAKLTAVTSASTAYMELSSLTNEDAAVYHCTRSGDLTGGLAYWGQGTLVTVSA VL: DIVMTQAAFSNPVTLGTSASISCRSSKSLLHSNGITYLYWFLQKPGQSPQLLIYQMSNLASGVPDRFSSSGSGTDFTLRISRVEAEDVGVYYCAQNLELPYTFGSGTKLEIK
2.7
M6B1 (antibody, V domains shown, Mouse monoclonal from hybridoma) VH: EVQLVESGGDLVKPGGSLKLSCAASGFTFSSYAMSWVRQTPEKRLEWVAAINSNGGTTYYPDTMKDRFTISRDNAKNTLYLQMSSLRSEDSALYYCTRHNGGYENYGWFAYWGQGTLVTVSA VL: DIQMTQSPSSLSASLGGKVTITCKASQDINKNIIWYQHKPGKGPRLLIWYTSTLQPGIPSRFSGSGSGRDYSFSISNLEPEDIATYYCLQYDNLPRTFGGGTKLEIK
-2.7

Read the next record carefully.
Would you mind telling me what Inhibition of the binding of indicated biotin-Mab to sGPC3 core (%) value was observed for L9G11 (antibody, V domains shown, Mouse monoclonal from hybridoma) VH: QVQLQQPGAELVKPGASVKLSCKASGYTFTSYWMHWVKQRPGQGLEWIGTIDPSDSETHYNLQFKDTATLTVDKSSSTAYMQLSSLTSEDSAVYYCIRGAFYSSYSYWAWFAYWGQGTLVTVSA VL: DIVLTQSPTSLAVSLGQSVTISCRASESVEYYGTSLMQWYQQKPGQPPKLLIYGASNVESGVPARFSGSGSGTDFSLNIHPVEEDDIAMYFCQQSRKVPYTFGSGTKLEIK ?
-4.8
